Data credit: PubChem BioAssay (NCI)

Method: NCI Yeast Anticancer Drug Screen. Data for the mec2-1 strain (AID 157)
Cond: S. cerevisiae mec2-1 strain, at 5.0 µM (retest, dose inferred, filed as 0.5)
About 79,000 compounds went through this panel and 15% of them were active in at least one assay; those are over-represented in the sample as a whole. Activity calls are given as the source filed them. Cut-off read from the data, not from the text of the source: active = growth inhibition above about 70%; inactive = the rest.
Return exactly one item of T (active), F (inactive)

Before answering, review these 2 worked examples.
{"Compound": "N#Cc1ccccc1C(Cl)(Cl)Cl", "Category": "F"}
{"Compound": "C[C@]12CC[C@H]3[C@@H](C[C@@H](F)C4=CC(=O)CC[C@@]43C)[C@@H]1CC[C@@H]2O", "Category": "F"}

Which outcome did this test record for the compound CC1CCC2(NC1)OC1CC3C4CCC5CC(OC6OC(CO)C(OC7OC(CO)C(O)C(OC8OCC(O)C(O)C8O)C7OC7OC(CO)C(O)C(O)C7O)C(O)C6O)CCC5(C)C4CCC3(C)C1C2C (stereo not drawn) ?
F

Which outcome did this test record for the compound CCCCCCCCCCCCN1CC1 ?
F

Which outcome did this test record for the compound O=P(O/C(=C\c1ccccc1)c1ccccc1)(c1ccccc1)c1ccccc1 ?
F

====

Method: NCI Yeast Anticancer Drug Screen. Data for the mlh1 strain (AID 171)
Cond: S. cerevisiae mlh1 strain growth inhibition; at 3.7 µM
Description: Growth inhibition of yeast strains with defined genetic alterations is measured as a screen for potential anti-cancer activity. Selected strains with alterations in DNA damage repair or cell cycle control were exposed to compounds and growth inhibition was measured relative to vehicle treated controls. The strain used in this assay is mlh1
Compounds without any hit were thinned out: in the full panel of roughly 79,000, 15% have a hit. Calls of active or inactive are those of the source. Rule as the data show it: active = growth inhibition above about 70%; inactive = the rest.
Return exactly one item of active, inactive

{"Molecule": "CCN(CCCl)CCCCNc1c2ccccc2nc2ccc(OC)cc12", "Category": "inactive"}
{"Molecule": "CO[C@H](/C(C)=C/C=C/C(C)=C/c1coc(C)n1)[C@H](C)[C@H]1C[C@@H](O)[C@@]2(C)O[C@H]2/C=C/[C@@H](C)[C@@H]2C[C@@H](CC(=O)O2)C[C@H]2O[C@@H]2C(=O)O1", "Category": "inactive"}
{"Molecule": "C[C@]12CCc3nonc3C1CC[C@@H]1C2CC[C@]2(C)C(=O)CCC12 (some centres undefined)", "Category": "inactive"}
{"Molecule": "O=C(NNC(=O)OCC(Cl)(Cl)Cl)OCC(Cl)(Cl)Cl", "Category": "inactive"}
{"Molecule": "O=C(O)C1C2C=CC(C2)C1c1ccccc1 (centres undefined)", "Category": "inactive"}

Now look at this entry.
Which outcome did this test record for the molecule S=C1NC2(CCCCC2)NC12CCCCC2 ?
inactive

====

Method: NCI Yeast Anticancer Drug Screen. Data for the bub3 strain (AID 167)
Cond: S. cerevisiae bub3 mutant strain, at 100.0 µM
Description: Growth inhibition of yeast strains with defined genetic alterations is measured as a screen for potential anti-cancer activity. Selected strains with alterations in DNA damage repair or cell cycle control were exposed to compounds and growth inhibition was measured relative to vehicle treated controls. The strain used in this assay is bub3
The panel holds about 79,000 compounds, 15% with a hit somewhere; the sample as a whole holds those more often. Active and inactive are the calls of the source. Rule as the data show it: active = growth inhibition above about 70%; inactive = the rest.
Return exactly one item of true = active, false = inactive

{"Compound": "COc1cccc2c1C(=O)c1c(O)c3c(c(O)c1C2=O)C[C@@](O)(C(C)=O)C[C@@H]3OC1CC(N)C(OC2CC(O)C(O)C(C)O2)C(C)O1 (some centres undefined)", "Category": "false"}
{"Compound": "COC1C(O)C(C)OC(OC2C(Oc3cccc4c(O)c5c(=O)oc6ccc(C)c7c(=O)oc(c34)c5c67)OC(C)C(O)C2O)C1O (centres undefined)", "Category": "false"}
{"Compound": "Oc1cccc2cccnc12", "Category": "true"}
{"Compound": "COC(=O)C(F)C(Br)C(=O)OC (centres undefined)", "Category": "true"}
{"Compound": "CC1CC(Br)C(=O)O1 (centres undefined)", "Category": "true"}
{"Compound": "C/C(CCl)=N/NC1=NC(c2ccccc2Cl)P(=O)(NCCCNP2(=O)SC(N/N=C(/C)CCl)=NC2c2ccccc2Cl)S1 (centres undefined)", "Category": "false"}
{"Compound": "CCC(=O)OC1CCn2c1nc1c2C(=O)C(C)=C(N2CC2)C1=O (centres undefined)", "Category": "false"}
{"Compound": "NNc1ccccc1Cl", "Category": "true"}

Which outcome did this test record for the compound CNC(=O)ON(C(C)=O)C(=O)NC ?
false
